- Tested on: NCI-H23 lung
- Test name: NCI-60 one-dose screen, 48 h
- Test conditions: 10 µM unless noted
- Description: Growth inhibition of the NCI-H23 human Non-Small Cell Lung tumor cell line is measured as a screen for anti-cancer activity. Cells are grown in 96 well plates and exposed to the test compound for 48 hours. Compounds are tested at a single concentration, which is 10^-5 M for most compounds. The reported endpoint is percent growth (GI% or GIPRCNT), where numbers from 0 - 100% represent growth inhibition, and numbers from -100% - 0 represent cell death. […]
About 83,000 compounds went through this panel and 20% of them were active in at least one assay; those are over-represented in the sample as a whole. The source made the active and inactive calls. The calls were made as follows: active = growth percent below 10; inactive = the rest.
Return exactly one item of active, inactive

Study these solved cases before continuing.
{"Molecule": "CN1CCN(c2ccc3c(c2)nc(NNC(=O)c2cnccn2)c2cccn23)CC1", "Answer label": "active"}
{"Molecule": "O=C(Nc1ccccc1)N1CCN(c2cc(-c3cn(-c4ccccc4)nc3-c3cccc(O)c3)ccn2)CC1", "Answer label": "inactive"}
{"Molecule": "COc1cc(NC(=O)c2cccc(C3CCc4c(cc(OC)c(OC)c4OC)O3)c2)cc(OC)c1OC (configuration not stated)", "Answer label": "inactive"}
{"Molecule": "COc1cc2c(c(OC)c1OC)C(=O)CC(c1cccc(NC(=O)c3cc(NC(=O)[C@@H](N)CO)ccc3C)c1)O2 (some centres not stated)", "Answer label": "inactive"}
{"Molecule": "CC1(C)CC[C@]2(C(=O)Nc3ccccc3)CC[C@]3(C)C(=CCC4[C@@]5(C)C[C@@H](O)[C@H](O)[C@@](C)(CO)C5CC[C@]43C)C2C1 (some centres not stated)", "Answer label": "inactive"}
{"Molecule": "CN(C)CCCNC(=O)c1cc(NC(=O)c2cc(NC(=O)c3ccc(/C=C/c4ccccc4)cc3)cn2C)cn1C", "Answer label": "inactive"}

Turning now to a further molecule:
[in] Give the logged outcome of this assay for the following molecule: `N#Cc1c(-c2ccc(Cl)cc2)nc2n[nH]c(-c3ccc(Cl)cc3)c2c1-c1ccc(C(F)(F)F)cc1`
[out] active

----------
- Tested on: MOLT-4 leukemia
- Test name: NCI-60 one-dose screen, 48 h (100 = growth as untreated, 0 = no growth, -100 = all killed)
- Test conditions: 10 µM unless noted
About 83,000 compounds went through this panel and 20% of them were active in at least one assay; those are over-represented in the sample as a whole.
Observation type: growth (%)
Give bare numbers, in %.

Example compounds with recorded growth:
{"Compound": "O=c1[nH]c2ccc(Cl)cc2cc1CSc1nccc(-c2ccc(Cl)cc2)n1", "growth / %": 85.5}
{"Compound": "CCCCSc1nc(Nc2ccc(S(N)(=O)=O)cc2)c(C#N)c(-c2ccc(Cl)cc2)n1", "growth / %": 52.8}

For each entry beneath this line, provide reported growth.
1. N#Cc1c(-c2ccc(Br)cc2)nc2n[nH]c(-c3ccc(Br)cc3)c2c1-c1ccc(F)cc1
2. CCCSc1nc(NCCc2c[nH]c3ccccc23)c(C#N)c(-c2ccc(F)cc2)n1
3. CC12CC[C@@H]3[C@]4(C)COC(c5cn[nH]c5-c5cccc(Cl)c5)O[C@@H]4CC[C@@]3(C)[C@@H]1CC(C1=CCOC1=O)O2 (some centres not stated)
4. COc1cc(-c2cc(-c3cccc(OCC(=O)O)c3)[nH]c(=O)c2C#N)cc(OC)c1OC

[out]
74.9
42.5
12.4
85.9

Return reported growth values for all items listed beneath this line.
1. COc1ccc(-c2ccnc(SCc3cc4ccccc4[nH]c3=O)n2)cc1
2. O=C1NC(=O)c2c1c1c3cc(Br)ccc3[nH]c1c1oc3ccc(F)cc3c21
3. COc1ccc2[nH]c(O)c(N=NC(=O)Cn3c(-c4ccccc4)nc4cc(C)ccc43)c2c1
4. CN(C)CCn1c2ccccc2c2nc3cc(C(F)(F)F)ccc3nc21
5. CCCS(=O)(=O)N1CCCC(C(=O)Nc2nc3ccc(NC(=O)c4ccc(F)c(OC)c4F)cc3s2)C1 (configuration not stated)
6. COc1ccc(C2=NN(c3ccccc3)C(c3ccc(OC)c(OCc4ccccc4)c3)C2)cc1OC (configuration not stated)

[out]
1: 11.1; 2: -5.4; 3: 18.5; 4: 23.8; 5: 0.124; 6: 97

Okay, here is my list. What is growth for each of these?
1. CC12CC[C@@H]3[C@]4(C)COC(c5cn[nH]c5-c5cccc(Br)c5)O[C@@H]4CC[C@@]3(C)[C@@H]1CC(C1=CCOC1=O)O2 (some centres not stated)
2. Cn1cc(NC(=O)c2cc(NC(=O)c3ccc(C#Cc4ccccc4)cc3)cn2C)cc1C(=O)NCCCN1CCOCC1
3. CC1(C)CC[C@]2(C(=O)O)CC[C@]3(C)C(=CCC4[C@@]5(C)C[C@@H](O)[C@@H]6OC(c7cccc(Br)c7)OC[C@@]6(C)C5CC[C@]43C)C2C1 (some centres not stated)
4. CCCCc1c(Nn2cnnn2)no[n+]1[O-]
5. COc1ccc(NC(=O)[C@H](C)N)cc1C(=O)Nc1cccc(C2CC(=O)c3c(cc(OC)c(OC)c3OC)O2)c1 (some centres not stated)
6. N#Cc1ccc(C(=O)Nn2c(N)cc3ccccc3c2=O)cc1
7. Cc1cc2c(cc1Cl)C(=O)/C(=C/c1ccc(F)cc1)O2
8. O=C(O)c1ccc(-c2ccc(/C=N/NC(=O)c3[nH]c4ccc(Br)cc4c3-c3ccccc3)s2)cc1

[out]
1: 4.43; 2: -19.3; 3: 13.2; 4: 23; 5: 59.8; 6: 84.6; 7: 84.3; 8: 10.7

// for each compound in input: emit growth
1. CCN(CC)c1ccc(/C=N/Nc2nc(-c3ccc(C)cc3)cs2)c(O)c1
2. CCOC(=O)C1=C(N)N(c2ccccc2)C2=C(C(=O)CC(C)(C)C2)C1c1ccccc1Cl (configuration not stated)
3. N/C(=N\N=C\c1ccc([N+](=O)[O-])cc1)c1c(N)nc(=S)[nH]c1-c1ccc(Cl)cc1Cl
4. C=C1CC[C@@H]2[C@]3(C)COC(c4cn(-c5ccccc5)nc4-c4cccc([N+](=O)[O-])c4)O[C@@H]3CC[C@@]2(C)[C@@H]1C/C=C1/C(=O)OC[C@H]1O (some centres not stated)
5. C#CCOc1cc(N(CC)CC)ccc1C(C(=O)NC(C)(C)C)N(C(=O)C1CCc2cc(F)ccc2O1)c1ccccc1F (configuration not stated)
6. Cc1c(C(=O)NNC(=O)c2ccc(Cl)cc2)nnn1-c1ccc(Cl)cc1
7. COc1cc2oc(-c3cccc(C(=O)Nc4ccc(Cl)cc4)c3)cc(=O)c2c(OCCNC(=O)[C@H](CO)NC(=O)OC(C)(C)C)c1OC

[out]
1. 80
2. 25.8
3. 94
4. -3.81
5. 5.25
6. 85.4
7. 5.42
